The reported numbers originate from ChEMBL document CHEMBL1121837.

For each entry below, report its MAC value.
Tested on: Schistosoma mansoni
assay_notes: In vitro antischistosomal activity, minimum active concentration to cause severe damage or death of worms at 96 hr against Schistosoma mansoni
Assay type: functional

Inquiry: Given the entry `Cc1cc(S)n2ncc(-c3ccc(Cl)cc3)c2n1` , report its measured MAC.
Reply text: 100 µg/mL

Inquiry: Given the entry `COc1cc(-c2cc3nc(C)cc(S)n3n2)cc(OC)c1OC` , report its measured MAC.
Reply text: 1 µg/mL

Inquiry: Given the entry `Oc1cc(-c2ccccc2)nc2cc(-c3ccccc3)nn12` , report its measured MAC.
Reply text: >100 µg/mL

Inquiry: Given the entry `Sc1ccnc2ccnn12` , report its measured MAC.
Reply text: 1 µg/mL

Inquiry: Given the entry `Cc1cccc(-c2cnn3c(S)ccnc23)c1` , report its measured MAC.
Reply text: 0.32 µg/mL

Inquiry: Given the entry `Cn1ccc(=S)n2nccc12` , report its measured MAC.
Reply text: >100 µg/mL

Inquiry: Given the entry `CCOC(=O)c1cnn2c(O)cc(-c3ccccc3)nc12` , report its measured MAC.
Reply text: >100 µg/mL

Inquiry: Given the entry `Cc1cccc(-c2cnn3c(O)cc(-c4ccccc4)nc23)c1` , report its measured MAC.
Reply text: 1 µg/mL

Inquiry: Given the entry `Cc1cc(S)n2nc(-c3ccccc3)cc2n1` , report its measured MAC.
Reply text: 1 µg/mL

Inquiry: Given the entry `Cn1ccc(=S)n2nc(-c3ccccc3)cc12` , report its measured MAC.
Reply text: 10 µg/mL

Inquiry: Given the entry `Oc1cc(-c2ccccc2)nc2c(-c3ccccc3)cnn12` , report its measured MAC.
Reply text: 10 µg/mL

Inquiry: Given the entry `COc1cc(-c2cc3nc(C)cc(O)n3n2)cc(OC)c1OC` , report its measured MAC.
Reply text: >100 µg/mL

Inquiry: Given the entry `Cn1ccc(=O)n2nc(-c3ccccc3)cc12` , report its measured MAC.
Reply text: >100 µg/mL

Inquiry: Given the entry `Cc1cc(O)n2nc(-c3cccc(Cl)c3)cc2n1` , report its measured MAC.
Reply text: >100 µg/mL

Inquiry: Given the entry `Cc1cc(O)n2nc(-c3ccccc3)cc2n1` , report its measured MAC.
Reply text: 100 µg/mL

Inquiry: Given the entry `Oc1cc(-c2ccccc2)nc2ccnn12` , report its measured MAC.
Reply text: >100 µg/mL

Inquiry: Given the entry `CCn1ccc(=S)n2nccc12` , report its measured MAC.
Reply text: 100 µg/mL

Inquiry: Given the entry `Cc1cccc(-c2cnn3c(S)cc(C)nc23)c1` , report its measured MAC.
Reply text: 100 µg/mL

Inquiry: Given the entry `Oc1ccnc2cc(-c3ccccc3)nn12` , report its measured MAC.
Reply text: >100 µg/mL

Inquiry: Given the entry `Sc1ccnc2cc(-c3ccccc3)nn12` , report its measured MAC.
Reply text: 1 µg/mL

Inquiry: Given the entry `Cc1cc(=S)n2nccc2n1C` , report its measured MAC.
Reply text: >100 µg/mL

Inquiry: Given the entry `CCCn1ccc(=S)n2nc(-c3ccccc3)cc12` , report its measured MAC.
Reply text: 10 µg/mL

Inquiry: Given the entry `CCOC(=O)c1cnn2c(S)cc(C)nc12` , report its measured MAC.
Reply text: 10 µg/mL

Inquiry: Given the entry `Cc1cc(=O)n2nccc2n1C` , report its measured MAC.
Reply text: 100 µg/mL

Inquiry: Given the entry `O=c1cc(-c2ccccc2)[nH]c2cc(-c3cccc(Cl)c3)nn12` , report its measured MAC.
Reply text: >100 µg/mL

Inquiry: Given the entry `Oc1cc(-c2ccccc2)nc2c(-c3ccc(Cl)cc3)cnn12` , report its measured MAC.
Reply text: 100 µg/mL

Inquiry: Given the entry `Oc1ccnc2c(-c3ccccc3)cnn12` , report its measured MAC.
Reply text: 100 µg/mL

Inquiry: Given the entry `Cn1ccc(=O)n2nccc12` , report its measured MAC.
Reply text: >100 µg/mL
